Molecular target: Cytochrome P450 3A4 (Homo sapiens) (UniProt P08684)
Sequence (P08684 whole entry, looked up): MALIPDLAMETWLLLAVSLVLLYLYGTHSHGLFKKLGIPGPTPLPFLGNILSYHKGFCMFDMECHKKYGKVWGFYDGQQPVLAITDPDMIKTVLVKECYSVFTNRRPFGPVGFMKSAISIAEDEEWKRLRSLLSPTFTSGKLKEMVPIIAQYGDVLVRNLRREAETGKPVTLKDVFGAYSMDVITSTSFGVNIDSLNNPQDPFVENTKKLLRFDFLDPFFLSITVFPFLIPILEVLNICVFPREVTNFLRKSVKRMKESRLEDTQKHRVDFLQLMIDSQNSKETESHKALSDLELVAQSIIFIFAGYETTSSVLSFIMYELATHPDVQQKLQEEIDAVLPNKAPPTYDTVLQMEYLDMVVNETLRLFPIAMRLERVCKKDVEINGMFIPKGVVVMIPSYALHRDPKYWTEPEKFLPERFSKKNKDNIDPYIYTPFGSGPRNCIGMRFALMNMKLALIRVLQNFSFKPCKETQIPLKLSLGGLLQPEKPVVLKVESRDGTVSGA
Assay: qHTS Assay for Activators of Cytochrome P450 3A4 (AID 885); also: nearly all actives have a fitted effect of over 65% in size
Settings: recombinant CYP3A4, Luciferin-PPXE luminescence, 60 min; series mostly up to 57.1 µM
Protocol: NIH Molecular Libraries Screening Centers Network [MLSCN] NIH Chemical Genomics Center [NCGC] The P450 gene superfamily is involved in the metabolism and clearance of xenobiotics. […] The luciferin is then measured by luminescence after the addition of a luciferase detection reagent. […] Inhibitors and some substrates limit the production of luciferin, and decrease measured luminescence; activators increase the production of luciferin and luminescence. […]
Activity calls are given as the source filed them. Calls follow the shape of the dose curve; as a rule, active = well fitted activation curve with a large enough effect; inconclusive = small, poorly fitted or top-dose-only effect; inactive = no such curve, though single readings can be large or run the other way.
Hi! Could you answer with just one of these? active, inactive

Exercise: In this assay, the call recorded for COC(=O)[C@@]1(Cc2ccc(F)cc2)[C@H]2c3cc(C(=O)N(C)C)n(Cc4ccc(C)c(F)c4F)c3C[C@H]2CN1C(=O)c1ccccc1 was what?
Key: inactive

Exercise: Param item: COC(=O)[C@H]1C[C@@H]1[C@H](NC(=O)c1cc(C)on1)c1ccccc1
Key: inactive

Exercise: Same again, this time with Nc1nc(/C(=C/CC(=O)O)C(=O)NC2C(=O)N3C(C(=O)O)=CCSC23)cs1 (stereo not drawn)
Key: inactive

Exercise: Cool, now CNC(=O)[C@H](C)[C@H]1C[C@]1(C)[C@H](NC(=O)OCc1ccccc1)c1ccccc1
Key: inactive

Exercise: Record: CCCC[C@@H]1C[C@H]1C(NC(=O)c1cccs1)c1ccc(C(F)(F)F)cc1 (stereo partly drawn)
Key: inactive

Exercise: Record: CCC(C)Nc1ccc(NC(C)CC)cc1 (stereo not drawn)
Key: inactive

Exercise: Proceed to CC(=O)Oc1cc(OC(C)=O)c2c(=O)cc(-c3ccc(OC(C)=O)c(OC(C)=O)c3)oc2c1
Key: inactive

Exercise: Entry to check: COC(=O)[C@@]1(Cc2ccc(F)cc2)[C@H]2c3cc(C(=O)N4CCCC4)n(Cc4ccc(C)c(F)c4F)c3C[C@H]2CN1C(=O)c1ccccc1
Key: inactive

Exercise: What do you have for CCCCCC1=C2CNC(C)(C(=O)OC)C=C2C(C)C1=O (stereo not drawn) ?
Key: inactive

Exercise: Input COCC1C2CC[C@H]3C(OCc4ccc(F)cc4C(F)(F)F)OC[C@]4(C)[C@H]3C2=C(CN4C(=O)OC(C)(C)C)[C@H](C)C1COC (stereo partly drawn)
Key: inactive

Exercise: Another: COc1cccc(-c2cc(=O)c3cc(O)ccc3o2)c1
Key: inactive

Exercise: Queued: CCCN(CCc1ccccc1)[C@H]1CCc2c(O)cccc2C1
Key: active

Exercise: Try the compound COC(=O)[C@@]1(Cc2ccccc2)[C@H]2c3cc(C(=O)N4CCCC4)n(Cc4cc(F)cc5c4OCOC5)c3C[C@H]2CN1C(=O)c1ccccc1
Key: inactive

Exercise: Also, COC(=O)[C@@]1(Cc2ccccc2)[C@H]2c3cc(C(=O)N4CCCC4)n(C)c3C[C@H]2CN1C(=O)c1ccccc1 please.
Key: inactive

Exercise: Next compound: Cc1cc(CNC(=O)[C@@H]2C[C@H]2[C@@H](NP(=O)(c2ccccc2)c2ccccc2)c2ccccc2)nn1C
Key: inactive

Exercise: Repeat with C[C@@H](C(=O)O)[C@@H]1C[C@@]1(C)[C@@H](NC(=O)OCc1ccccc1)c1ccccc1
Key: inactive

Exercise: Also, COc1cccc2c1[C@@H]1CN(CCCCn3c(=O)[nH]c4c(sc5ncc(-c6ccccc6)nc54)c3=O)C[C@H]1CO2 please.
Key: inactive

Exercise: Repeat for the following compound: CC[C@H]1C2=C3C(CC[C@H]4C(OCc5ccc(F)cc5C(F)(F)F)OC[C@](C)([C@@H]34)N(C(=O)OC(C)(C)C)C2)C(COC)C1COC (stereo partly drawn)
Key: inactive
